assay: Pharmacokinetic profile, cassette dosing protocol in dog (IV and PO); assay type: in vivo; conditions: male beagle dogs, 1 mg/kg, oral dose
Quick list: F (PO) percent bioavaibility per entry.
Lab book: enter the figure in %, no units written.

Reference set (3 entries):
# query: F (PO) percent bioavaibility of entry CC[C@H]1OC(=O)[C@H](C)C(=O)[C@H](C)[C@@H](O[C@@H]2O[C@H](C)C[C@H](N(C)C)[C@H]2O)C(C)(OCC#Cc2ccc(-c3nnn(C)n3)s2)C[C@@H](C)C(=O)[C@H](C)[C@H]2NC(=O)O[C@@]21C (stereo in doubt) [EXAMPLE 29]
80.30

# query: F (PO) percent bioavaibility of entry CC[C@H]1OC(=O)[C@@](C)(F)C(=O)[C@H](C)[C@@H](O[C@@H]2O[C@H](C)C[C@H](N(C)C)[C@H]2O)C(C)(OCC#Cc2ccc(-c3nnn(C)n3)s2)C[C@@H](C)C(=O)[C@H](C)[C@H]2NC(=O)O[C@@]21C (stereo in doubt) [EXAMPLE 20]
73.60

# query: F (PO) percent bioavaibility of entry CC[C@H]1OC(=O)[C@H](C)C(=O)[C@H](C)[C@@H](O[C@@H]2O[C@H](C)C[C@H](N(C)C)[C@H]2O)C(C)(OC/C=C/c2ccc(-c3nnn(C)n3)s2)C[C@@H](C)C(=O)[C@H](C)[C@H]2NC(=O)O[C@@]21C (stereo in doubt) [EXAMPLE 22]
63.00

Now consider the entry below.
# query: F (PO) percent bioavaibility of entry CC[C@H]1OC(=O)[C@@](C)(F)C(=O)[C@H](C)[C@@H](O[C@@H]2O[C@H](C)C[C@H](N(C)C)[C@H]2O)C(C)(OC/C=C/c2ccc(-c3nnn(C)n3)s2)C[C@@H](C)C(=O)[C@H](C)[C@H]2NC(=O)O[C@@]21C (stereo in doubt) [EXAMPLE 31]
81.10

----------
assay: Pharmacokinetic profile, cassette dosing protocol in dog (IV and PO); assay type: in vivo; conditions: dog, plasma, male beagle dogs, 1 mg/kg, oral dose
MEASURE NAME: Tmax
Answer shape: numeric part, then the unit.

# query: Tmax of entry CC[C@H]1OC(=O)[C@@](C)(F)C(=O)[C@H](C)[C@@H](O[C@@H]2O[C@H](C)C[C@H](N(C)C)[C@H]2O)C(C)(OC/C=C/c2ccc(-c3nnn(C)n3)s2)C[C@@H](C)C(=O)[C@H](C)[C@H]2NC(=O)O[C@@]21C (stereo in doubt) [EXAMPLE 31]
4.5 h

# query: Tmax of entry CC[C@H]1OC(=O)[C@H](C)C(=O)[C@H](C)[C@@H](O[C@@H]2O[C@H](C)C[C@H](N(C)C)[C@H]2O)C(C)(OC/C=C/c2ccc(-c3nnn(C)n3)s2)C[C@@H](C)C(=O)[C@H](C)[C@H]2NC(=O)O[C@@]21C (stereo in doubt) [EXAMPLE 22]
1.5 h

Now consider the entry below.
# query: Tmax of entry CC[C@H]1OC(=O)[C@@](C)(F)C(=O)[C@H](C)[C@@H](O[C@@H]2O[C@H](C)C[C@H](N(C)C)[C@H]2O)C(C)(OCC#Cc2ccc(-c3nnn(C)n3)s2)C[C@@H](C)C(=O)[C@H](C)[C@H]2NC(=O)O[C@@]21C (stereo in doubt) [EXAMPLE 20]
2 h

----------
test: Pharmacokinetic profile, cassette dosing protocol in dog (IV and PO); format: in vivo; details: dog, plasma, male beagle dogs, 1 mg/kg, intravenous dose, read-out: CLp (IV) plasma clearance (converted)
MEASURE NAME: clearance (mL/min/kg)
Lab book: enter the figure in mL/min/kg, no units written.

Reference set (2 entries):
# query: clearance of entry CC[C@H]1OC(=O)[C@@](C)(F)C(=O)[C@H](C)[C@@H](O[C@@H]2O[C@H](C)C[C@H](N(C)C)[C@H]2O)C(C)(OC/C=C/c2ccc(-c3nnn(C)n3)s2)C[C@@H](C)C(=O)[C@H](C)[C@H]2NC(=O)O[C@@]21C (stereo in doubt)
1.17

# query: clearance of entry CC[C@H]1OC(=O)[C@H](C)C(=O)[C@H](C)[C@@H](O[C@@H]2O[C@H](C)C[C@H](N(C)C)[C@H]2O)C(C)(OC/C=C/c2ccc(-c3nnn(C)n3)s2)C[C@@H](C)C(=O)[C@H](C)[C@H]2NC(=O)O[C@@]21C (stereo in doubt)
1.5

Now consider the entry below.
# query: clearance of entry CC[C@H]1OC(=O)[C@@](C)(F)C(=O)[C@H](C)[C@@H](O[C@@H]2O[C@H](C)C[C@H](N(C)C)[C@H]2O)C(C)(OCC#Cc2ccc(-c3nnn(C)n3)s2)C[C@@H](C)C(=O)[C@H](C)[C@H]2NC(=O)O[C@@]21C (stereo in doubt)
2.67

----------
assay: Pharmacokinetic profile, cassette dosing protocol in dog (IV and PO); assay type: in vivo; conditions: dog, plasma, male beagle dogs, 1 mg/kg, intravenous dose, read-out: AUC (IV)
MEASURE NAME: AUC (ng·h/mL)
Lab book: enter the figure in ng·h/mL, no units written.

# query: AUC of entry CC[C@H]1OC(=O)[C@@](C)(F)C(=O)[C@H](C)[C@@H](O[C@@H]2O[C@H](C)C[C@H](N(C)C)[C@H]2O)C(C)(OC/C=C/c2ccc(-c3nnn(C)n3)s2)C[C@@H](C)C(=O)[C@H](C)[C@H]2NC(=O)O[C@@]21C (stereo in doubt)
16100

# query: AUC of entry CC[C@H]1OC(=O)[C@@](C)(F)C(=O)[C@H](C)[C@@H](O[C@@H]2O[C@H](C)C[C@H](N(C)C)[C@H]2O)C(C)(OCC#Cc2ccc(-c3nnn(C)n3)s2)C[C@@H](C)C(=O)[C@H](C)[C@H]2NC(=O)O[C@@]21C (stereo in doubt)
7290

# query: AUC of entry CC[C@H]1OC(=O)[C@H](C)C(=O)[C@H](C)[C@@H](O[C@@H]2O[C@H](C)C[C@H](N(C)C)[C@H]2O)C(C)(OC/C=C/c2ccc(-c3nnn(C)n3)s2)C[C@@H](C)C(=O)[C@H](C)[C@H]2NC(=O)O[C@@]21C (stereo in doubt)
11500

----------
test: Pharmacokinetic profile, cassette dosing protocol in dog (IV and PO); format: in vivo; conditions: dog, plasma, male beagle dogs, 1 mg/kg, intravenous dose, read-out: T1/2 (IV) (converted)
MEASURE NAME: half-life
Answer shape: numeric part, then the unit.

# query: half-life of entry CC[C@H]1OC(=O)[C@@](C)(F)C(=O)[C@H](C)[C@@H](O[C@@H]2O[C@H](C)C[C@H](N(C)C)[C@H]2O)C(C)(OCC#Cc2ccc(-c3nnn(C)n3)s2)C[C@@H](C)C(=O)[C@H](C)[C@H]2NC(=O)O[C@@]21C (stereo in doubt)
14.4 h

# query: half-life of entry CC[C@H]1OC(=O)[C@H](C)C(=O)[C@H](C)[C@@H](O[C@@H]2O[C@H](C)C[C@H](N(C)C)[C@H]2O)C(C)(OC/C=C/c2ccc(-c3nnn(C)n3)s2)C[C@@H](C)C(=O)[C@H](C)[C@H]2NC(=O)O[C@@]21C (stereo in doubt)
8.4 h

New cases:
# query: half-life of entry CC[C@H]1OC(=O)[C@@](C)(F)C(=O)[C@H](C)[C@@H](O[C@@H]2O[C@H](C)C[C@H](N(C)C)[C@H]2O)C(C)(OC/C=C/c2ccc(-c3nnn(C)n3)s2)C[C@@H](C)C(=O)[C@H](C)[C@H]2NC(=O)O[C@@]21C (stereo in doubt)
22.9 h

----------
Quick list: Vd per entry.
Assay: Pharmacokinetic profile, cassette dosing protocol in dog (IV and PO)
Format: in vivo
Details: male, beagle, dog, plasma, iv, 1 mg/kg, male beagle dogs, intravenous dose, read-out: Vc (IV) volume of distribution
Method: The pharmacokinetic profiles of EXAMPLE 20, EXAMPLE 22, EXAMPLE 29 and EXAMPLE 31 were evaluated using cassette dosing protocols in dog. The cassette dosing protocol in dogs combined three test compounds with the reference compound (EXAMPLE 104 of commonly-owned U.S. Pat. No. 5,866,549), each at a dose of 1 mg/kg. […] The plasma concentrations of the test compound and reference compounds were simultaneously determined using HPLC-MS/MS following liquid-liquid extraction of the samples. […]
Lab book: enter the figure in L/kg, no units written.

Reference set (3 entries):
# query: Vd of entry CC[C@H]1OC(=O)[C@H](C)C(=O)[C@H](C)[C@@H](O[C@@H]2O[C@H](C)C[C@H](N(C)C)[C@H]2O)C(C)(OC/C=C/c2ccc(-c3nnn(C)n3)s2)C[C@@H](C)C(=O)[C@H](C)[C@H]2NC(=O)O[C@@]21C (stereo in doubt)
0.9

# query: Vd of entry CC[C@H]1OC(=O)[C@@](C)(F)C(=O)[C@H](C)[C@@H](O[C@@H]2O[C@H](C)C[C@H](N(C)C)[C@H]2O)C(C)(OC/C=C/c2ccc(-c3nnn(C)n3)s2)C[C@@H](C)C(=O)[C@H](C)[C@H]2NC(=O)O[C@@]21C (stereo in doubt)
1.1

# query: Vd of entry CC[C@H]1OC(=O)[C@@](C)(F)C(=O)[C@H](C)[C@@H](O[C@@H]2O[C@H](C)C[C@H](N(C)C)[C@H]2O)C(C)(OCC#Cc2ccc(-c3nnn(C)n3)s2)C[C@@H](C)C(=O)[C@H](C)[C@H]2NC(=O)O[C@@]21C (stereo in doubt)
1.6

Now consider the entry below.
# query: Vd of entry CC[C@H]1OC(=O)[C@H](C)C(=O)[C@H](C)[C@@H](O[C@@H]2O[C@H](C)C[C@H](N(C)C)[C@H]2O)C(C)(OCC#Cc2ccc(-c3nnn(C)n3)s2)C[C@@H](C)C(=O)[C@H](C)[C@H]2NC(=O)O[C@@]21C (stereo in doubt)
0.9

Ref: patent US20050267054A1
